I'd be grateful if you could share measured GI50 for these entries.
# Test system: SW-620 colon
# MEASUREMENT_PROTOCOL: NCI tumour cell line growth inhibition, 48 h

Examples from the recorded data:
{"MOLECULE": "COc1ccc2nc3ccccc3c(NCCNCC(C)O)c2c1 (stereo not drawn)", "QUANTITY": "GI50", "OBSERVED_VALUE": "0.3 µM"}
{"MOLECULE": "CCC(=O)Nc1nnc(Cc2ccc(OC)c(OC)c2)s1", "QUANTITY": "GI50", "OBSERVED_VALUE": "> 100 µM"}

Entry O=C(C(=CN1CCN(C(=O)c2ccco2)C1=S)C(=O)c1ccccc1)c1ccccc1 ; GI50 = 8.73 µM

---

# Tested on: NCI/ADR-RES ovarian
# MEASUREMENT_PROTOCOL: NCI tumour cell line growth inhibition, 48 h; in the data active = GI50 below about 0.43 µM; inactive = the rest
Field 'call' accepts 1 (active), -1 (inactive)

{"COMPOUND": "CSc1nc2c(c(=O)n1C)C(c1ccccc1)C1=C(N2)/C(=C/c2ccccc2)CCC1 (configuration not stated)", "LABEL": -1}

## Input Recorded test call requested for O=C1C(Cl)=C(NCCCN(CCCNC2=C(Cl)C(=O)c3ccccc3C2=O)C2=C(Cl)C(=O)c3ccccc3C2=O)C(=O)c2ccccc21
## Output -1

## Input Recorded test call requested for C=C(C)C(=O)Nc1ccc(-c2c(-c3ccc(Oc4nccc(C)n4)c(F)c3)c3c(N)ncnc3n2C)cc1
## Output -1

## Input Recorded test call requested for O=C1/C(=C/c2ccc(C(F)(F)F)cc2)COc2ccc(O)c(O)c21
## Output -1

## Input Recorded test call requested for COC(=O)CC1=C(C)/C(=C/c2[nH]c(-c3ccc[nH]3)cc2OC)N=C1C
## Output 1

## Input Recorded test call requested for O=C1/C(=C/c2ccc([N+](=O)[O-])o2)Oc2ccc(Cl)cc21
## Output -1

## Input Recorded test call requested for O=C(C(=CN1CCN(C(=O)c2ccco2)C1=S)C(=O)c1ccccc1)c1ccccc1
## Output -1

---

# Test system: MALME-3M melanoma
# MEASUREMENT_PROTOCOL: NCI tumour cell line growth inhibition, 48 h
QUANTITY: log10 TGI (log10 of the value in µM)
Could you please treat all values as log10 of TGI in µM?

Examples from the recorded data:
{"COMPOUND": "C(=N\\Nc1ccc2ccccc2n1)/c1ccccn1", "log10 TGI": 0.92}
{"COMPOUND": "Cc1cc(O)c2c(c1)C(C1c3cccc(O)c3C(=O)c3c(O)cc(C)cc31)c1cccc(O)c1C2=O (stereo not given)", "log10 TGI": 0.10}
{"COMPOUND": "CC1=C[C@@H]2c3c(c(O)c(O)c4oc5cc(O)cc(O)c5c(=O)c34)[C@@H](c3cc(O)c(O)c4oc5cc(O)cc(O)c5c(=O)c34)[C@@H]2C(C)(C)C1", "log10 TGI": 1.40}

// each listed compound needs a value for log10 TGI
1. COc1cnccc1Nc1nc(-c2nn(Cc3c(F)cc(OCCO)cc3F)c3ccccc23)ncc1OC
2. COc1ccc2nc3ccccc3c(NCCNCC(C)O)c2c1 (stereo not given)
3. CN(C)CCCn1c(Cn2nc3ccccc3n2)nc2cc(C(F)(F)F)ccc21
4. CC12O[C@H](C[C@@H](OC(=O)CCC(=O)O)[C@H]1O)n1c3ccccc3c3c4c(c5c6ccccc6n2c5c31)C(=O)NC4=O
5. NC(=S)N1N=C2c3ccccc3CCC[C@H]2[C@@H]1c1ccccc1

## Output
[0.77, 0.24, 1.39, 0.37, 1.33]

// each listed compound needs a value for log10 TGI
1. Fc1ccc(Nc2nc(Nc3ccc(-c4nc5ccccc5[nH]4)cc3)c3cn[nH]c3n2)cc1
2. O=C1/C(=C/c2ccc([N+](=O)[O-])o2)Oc2ccc(Cl)cc21

## Output
[0.55, 0.65]
